Field: Activity. Provide a value for each of the molecules that follow.
system: TERT-RPE1; assay: Cytotoxicity against hTERT-RPE1 cells at 25 uM after 48 hrs by resazurin dye-based fluorescence assay relative to control; type: cell-based; conditions: human, tert-rpe1, 48 h
Show the value, then the unit it is measured in.

Some solved cases for reference:
INSERT INTO assay_data (molecule_smiles, assay_result) VALUES
  ('CCOc1ccc(NC(=O)c2cc3cc(Br)ccc3oc2=O)cc1', '13.28%'),
  ('CCOc1ccc2nc(Cl)c(/C=N/NC(=O)c3cc4ccccc4oc3=O)cc2c1', '9.5%'),
  ('O=C(N/N=C/c1cccnc1)c1cc2ccccc2oc1=O', '9.89%'),
  ('CCOc1ccc(NC(=O)c2cc3ccccc3oc2=O)cc1', '22.19%'),
  ('Cc1noc(NS(=O)(=O)c2ccc(NC(=O)c3cc4cc(Br)ccc4oc3=O)cc2)c1C', '12.79%');

Take each entry in turn and give its Activity.
1. O=C(N/N=C/c1cc2ccccc2nc1Cl)c1cc2cc([N+](=O)[O-])ccc2oc1=O
2. O=C(N/N=C/c1cccnc1)c1cc2cc(Br)ccc2oc1=O

Marked response:
["1.96%", "25.4%"]

Give me Activity for each of these molecules, listed below.
1. O=C(N/N=C/c1cccnc1)c1cc2cc([N+](=O)[O-])ccc2oc1=O
2. CCOc1ccc(NC(=O)c2cc3ccc(O)cc3oc2=O)cc1
3. CCOc1ccc(NC(=O)c2cc3cc([N+](=O)[O-])ccc3oc2=O)cc1

Marked response:
1: 10.95%; 2: 19.22%; 3: 8.22%

Exam item: Look up and state reported Activity for `O=C(N/N=C/c1cc2ccccc2nc1Cl)c1cc2cc(Br)ccc2oc1=O`
Marked response: 19.41%

###

assay: Selectivity index, ratio of IC50 for hTERT-BJ cells to IC50 for human CCRF-CEM cells; format: toxicity; conditions: hTERT-BJ cells versus CCRF-CEM cells, read-out: Ratio IC50
Please respond with reported selectivity ratio for every item in the list.

Reference set (5 entries):
INSERT INTO results (molecule_smiles, experimental_endpoint, assay_result) VALUES
  ('CCOc1ccc(NC(=O)c2cc3cc([N+](=O)[O-])ccc3oc2=O)cc1', 'selectivity ratio', '> 3.78'),
  ('CCOc1ccc(NC(=O)c2cc3ccc(O)cc3oc2=O)cc1', 'selectivity ratio', '> 3.97'),
  ('CCOc1ccc2nc(Cl)c(/C=N/NC(=O)c3cc4ccccc4oc3=O)cc2c1', 'selectivity ratio', '> 7.92'),
  ('O=C(N/N=C/c1ccncc1)c1cc2ccccc2oc1=O', 'selectivity ratio', '> 16.1'),
  ('Cc1noc(NS(=O)(=O)c2ccc(NC(=O)c3cc4cc(Br)ccc4oc3=O)cc2)c1C', 'selectivity ratio', '> 3.43');

// each listed molecule needs a value for selectivity ratio
1. Cc1noc(NS(=O)(=O)c2ccc(NC(=O)c3cc4ccc(O)cc4oc3=O)cc2)c1C
2. O=C(N/N=C/c1cccnc1)c1cc2ccc(O)cc2oc1=O
3. O=C(N/N=C/c1ccncc1)c1cc2cc([N+](=O)[O-])ccc2oc1=O
4. O=C(N/N=C/c1cccnc1)c1cc2cc(Br)ccc2oc1=O

Marked response:
> 2.33
> 3.55
> 3.86
> 13.5

Exam item: Supply measured selectivity ratio of `Cc1noc(NS(=O)(=O)c2ccc(NC(=O)c3cc4cc([N+](=O)[O-])ccc4oc3=O)cc2)c1C` in your reply.
Marked response: > 3.49
